// data source = patent US20220064276A1

- targetDesc: T1, mouse LTBP3-proTGFβ1 complex (mouse, UniProt Q61810 41-1245; P04202 30-390, limits assumed)
- T1 construct: Exemplary entries; also called Mo LTBP3-proTGFβ1; Murine LTBP3 proTGFb1
- T1 sequence (Q61810 other isoform, or with tags, fused parts or gaps limits assumed, chain 1 of 2): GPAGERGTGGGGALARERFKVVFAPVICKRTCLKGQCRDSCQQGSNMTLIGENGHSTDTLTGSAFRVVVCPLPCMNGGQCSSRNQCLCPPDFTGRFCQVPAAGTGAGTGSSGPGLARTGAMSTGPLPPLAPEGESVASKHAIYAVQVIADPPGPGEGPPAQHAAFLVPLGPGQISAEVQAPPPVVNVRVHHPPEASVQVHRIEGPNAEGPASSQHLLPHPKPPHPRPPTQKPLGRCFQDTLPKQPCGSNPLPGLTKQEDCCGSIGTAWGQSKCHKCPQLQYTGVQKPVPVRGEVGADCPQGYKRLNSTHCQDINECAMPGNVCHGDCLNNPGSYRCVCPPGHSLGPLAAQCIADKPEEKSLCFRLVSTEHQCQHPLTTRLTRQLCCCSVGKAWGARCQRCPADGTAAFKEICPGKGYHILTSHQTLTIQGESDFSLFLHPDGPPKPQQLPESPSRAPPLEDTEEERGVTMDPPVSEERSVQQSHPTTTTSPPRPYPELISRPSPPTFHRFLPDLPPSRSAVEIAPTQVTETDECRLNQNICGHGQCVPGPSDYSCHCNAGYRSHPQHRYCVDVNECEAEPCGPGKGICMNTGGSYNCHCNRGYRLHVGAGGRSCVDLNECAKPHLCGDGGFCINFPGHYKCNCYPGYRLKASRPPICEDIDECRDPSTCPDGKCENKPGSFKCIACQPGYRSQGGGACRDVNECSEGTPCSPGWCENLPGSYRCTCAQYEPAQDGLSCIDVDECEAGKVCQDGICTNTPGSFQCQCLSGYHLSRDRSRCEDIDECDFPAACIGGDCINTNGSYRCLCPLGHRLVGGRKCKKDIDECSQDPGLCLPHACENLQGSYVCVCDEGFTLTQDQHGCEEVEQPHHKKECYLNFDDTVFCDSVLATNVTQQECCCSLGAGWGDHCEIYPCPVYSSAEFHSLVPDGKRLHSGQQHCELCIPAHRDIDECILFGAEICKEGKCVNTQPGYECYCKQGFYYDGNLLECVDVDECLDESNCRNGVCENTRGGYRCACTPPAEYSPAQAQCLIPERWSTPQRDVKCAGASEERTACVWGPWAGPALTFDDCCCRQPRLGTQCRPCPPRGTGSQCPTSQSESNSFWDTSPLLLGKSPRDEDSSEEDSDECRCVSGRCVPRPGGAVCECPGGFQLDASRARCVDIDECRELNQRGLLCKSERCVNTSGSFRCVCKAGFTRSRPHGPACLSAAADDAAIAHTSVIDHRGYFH
- T1 sequence (P04202 30-390 limits assumed, chain 2 of 2): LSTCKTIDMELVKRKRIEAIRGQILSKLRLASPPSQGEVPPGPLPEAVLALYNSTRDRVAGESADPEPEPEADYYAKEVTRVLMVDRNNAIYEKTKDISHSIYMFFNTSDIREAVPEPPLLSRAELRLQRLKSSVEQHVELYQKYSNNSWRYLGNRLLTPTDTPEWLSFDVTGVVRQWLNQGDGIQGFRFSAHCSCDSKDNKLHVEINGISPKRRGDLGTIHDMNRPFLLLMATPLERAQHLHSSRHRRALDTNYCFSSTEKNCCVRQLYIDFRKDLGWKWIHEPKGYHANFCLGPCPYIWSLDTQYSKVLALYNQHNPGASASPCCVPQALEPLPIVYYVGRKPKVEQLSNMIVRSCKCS
- assayProcedure: Octet BLI, IgG captured
pKd: −log10 of the molar value.
measuredQuantity: pKd

SR-AB41 (antibody, IgG1, V domains shown, Cycle 3, lineage SR-AB23) VH: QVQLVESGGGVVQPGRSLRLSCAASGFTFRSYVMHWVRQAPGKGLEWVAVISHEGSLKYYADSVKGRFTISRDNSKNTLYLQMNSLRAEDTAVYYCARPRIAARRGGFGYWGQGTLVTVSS VL: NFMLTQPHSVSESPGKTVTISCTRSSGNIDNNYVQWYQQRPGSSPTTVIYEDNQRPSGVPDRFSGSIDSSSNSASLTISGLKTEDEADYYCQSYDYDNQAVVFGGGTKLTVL
9.14
SR-AB43 (antibody, IgG1, V domains shown, Cycle 3, lineage SR-AB23) VH: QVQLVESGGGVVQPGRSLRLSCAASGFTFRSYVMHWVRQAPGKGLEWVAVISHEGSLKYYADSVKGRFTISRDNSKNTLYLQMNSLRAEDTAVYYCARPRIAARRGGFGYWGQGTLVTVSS VL: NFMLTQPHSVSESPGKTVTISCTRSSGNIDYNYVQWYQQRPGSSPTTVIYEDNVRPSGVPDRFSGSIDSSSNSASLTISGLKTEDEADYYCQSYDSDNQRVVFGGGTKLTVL
9.05
